# study.system: Beta-2 adrenergic receptor (Homo sapiens, UniProt P07550)
# assay.text: Binding affinity to human beta2 adrenergic receptor
pIC50: −log10 of the molar value.
readout.label: pIC50

pIC50 reading for Nc1nc(CC(=O)Nc2ccc(C[C@@H]3CC[C@H]([C@H](O)c4ccccc4)N3)cc2)cs1 : < 4.70

* * *

readout.label: IC50
Answer with the figure and its unit, nothing else.

GET /values?item= Nc1nc(CC(=O)Nc2ccc(C[C@@H]3CC[C@H]([C@H](O)c4ccccc4)N3)cc2)cs1 &system= Voltage-gated inwardly rectifying potassium channel KCNH2 (Homo sapiens) returns IC50: 11.2 µM

* * *

# assay.text: Plasma clearance in iv dosed rhesus monkey
# Assay type: ADME, organism-based, Macaca mulatta
readout.label: clearance (mL/min/kg)
Give your result in mL/min/kg as a bare value.

Consider Nc1nc(CC(=O)Nc2ccc(C[C@@H]3CC[C@H]([C@H](O)c4ccccc4)N3)cc2)cs1 . Its measured clearance is 43.4

* * *

# assay.text: Metabolic stability in human liver microsomes assessed as compound remaining after 45 mins
# Format: ADME, Microsome
# measurement.parameters: read-out: Stability
readout.label: remaining at 0.75 h

Record Nc1nc(CC(=O)Nc2ccc(C[C@@H]3CC[C@H]([C@H](O)c4ccccc4)N3)cc2)cs1 . Reported remaining at 0.75 h: 40%

* * *

# study.system: Beta-3 adrenergic receptor (Homo sapiens, UniProt P13945)
# Sequence (P13945 whole entry): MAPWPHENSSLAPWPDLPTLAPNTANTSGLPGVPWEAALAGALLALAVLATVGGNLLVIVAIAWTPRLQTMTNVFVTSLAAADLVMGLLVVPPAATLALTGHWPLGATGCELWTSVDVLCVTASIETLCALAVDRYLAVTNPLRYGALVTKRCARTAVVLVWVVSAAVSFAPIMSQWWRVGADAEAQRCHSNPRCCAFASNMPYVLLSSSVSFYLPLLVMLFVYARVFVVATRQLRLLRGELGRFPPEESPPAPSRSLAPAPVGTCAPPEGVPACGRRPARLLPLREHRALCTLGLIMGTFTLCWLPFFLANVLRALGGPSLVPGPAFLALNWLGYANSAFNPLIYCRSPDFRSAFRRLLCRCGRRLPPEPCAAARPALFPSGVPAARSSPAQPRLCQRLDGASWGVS
# assay.text: Agonist activity at human beta3 adrenergic receptor
# Assay type: functional
# measurement.parameters: read-out: EC50
pEC50: −log10 of the molar value.
Note to self: values exactly at 8 are 1. So pEC50 at or above 8 is 1, below is 0.

I'd appreciate it if you could say whether O=S(=O)(Nc1ccc(CC2CC[C@H]([C@@H](O)c3ccccc3)N2)cc1)c1ccc(-c2nc(-c3ccc(C(F)(F)F)cc3)cs2)cc1 (mixture of isomers) has pEC50 at least equal to 8.
0

# bool: pEC50 of Nc1nc(CC(=O)Nc2ccc(C[C@@H]3CC[C@H]([C@H](O)c4ccccc4)N3)cc2)cs1 >= 8
1

Hello, I need to know if O=S(=O)(Nc1ccc(CC2CC[C@@H]([C@@H](O)c3ccccc3)N2)cc1)c1ccc(-c2nc(-c3ccc(C(F)(F)F)cc3)cs2)cc1 (mixture of isomers) has measured pEC50 not below 8. Thanks!
0

Evaluate O=S(=O)(Nc1ccc(CC2CC[C@@H]([C@H](O)c3ccccc3)N2)cc1)c1ccc(-c2nc(-c3ccc(C(F)(F)F)cc3)cs2)cc1 (mixture of isomers) : pEC50 at minimum 8?
0

Dear colleague, could you confirm whether O=S(=O)(Nc1ccc(C[C@@H]2CC[C@H]([C@H](O)c3ccccc3)N2)cc1)c1ccc(-c2nc(-c3ccc(C(F)(F)F)cc3)cs2)cc1 has pEC50 at or above 8?
1

Decide: pEC50 of O=S(=O)(Nc1ccc(C[C@H]2CC[C@H]([C@H](O)c3ccccc3)N2)cc1)c1ccc(-c2nc(-c3ccc(C(F)(F)F)cc3)cs2)cc1 >= 8?
0

* * *

# assay.text: Plasma clearance in iv dosed dog
# Format: ADME, organism-based, Canis lupus familiaris
readout.label: clearance (mL/min/kg)
Return type: number; implicit unit mL/min/kg.

For record Nc1nc(CC(=O)Nc2ccc(C[C@@H]3CC[C@H]([C@H](O)c4ccccc4)N3)cc2)cs1 the listed clearance is 23

Sourced from ChEMBL document CHEMBL1681775
